- assayProtocol: soluble on expression in E. coli; label from the status in PepcDB or PDB records
testReadout: soluble on expression in E. coli

[
  {
    "querySequence": "MGSSHHHHHHGGTGENLYFQGGSGGTCPSISQSEVGIVETCGRFSYTADPGIHCLWCGSVLVRRVTLRLQEYELKVESKTKDNVFVTLSLVIQYQVSPDKLAEVYYACDSSLQCMRDYVLNSIRAKIPLYKLEALYVERGTISQQLKDEVDAIIGTYGIEIVSALISDIDPGAEITKAMNEVQKFQRLRVASVDAAETEKLKRVRAAEARCEARRLSGEGLAEQRKAIVAGLMHSIEDVQSEVRDLTSNDATNMLLMNQYYDTLQAIAANSSSSVIMLESNGGLEKVAAQLRQGVTHMMR",
    "result": "not soluble"
  },
  {
    "querySequence": "MAHHHHHHMKYLTFNRSNKDAIDLCERLEATKIDLANPLLLQYSWVIWEQVSDNKIKQSNNYKDYTRPLAKFNSVQKFWQLWNRLPQPSDLLAQKSMTRLSEDGTLRIIDALMIFRDNIQPMWEDPANAEGGHFEYKFVPRDFPYSQIDEFWNNLVLAIIGCTLKHYNLITGIRLVDKLSTTRHGYVRIEIWYTTVPDESVRNHLRKDLEEHMCNRIDGSHVYPPRGKNFSHSHK",
    "result": "soluble"
  },
  {
    "querySequence": "MKILLRNALITNEGKTFPGSVMIDGAFISRIIEGELPADDNLSADEVIECSGLRLFPGCIDDQVHFREPGLTHKATIASESRAAVAGGVTSFMDMPNTNPPTTMWERLLEKRQIGADTAWANYGFFFGGTNDNIDEIKRVDKHLVPGLKLFLGSSTGNMLVDNKETLEKIFGECDLLIATHCEKEEIIRANKEHYKAKYGNDLDIHFHPLIRSEEACYRSSAEAVELAERMNARLHILHLSTEKELSLFRNDIPTAQKRITSEVCVHHLWFSDTDYGRLGNRIKWNPAIKKESDREALRAAVRNGRIDIIATDHAPHLLREKEGSCLQAASGGPLVQHSLLALLELCNQ",
    "result": "not soluble"
  },
  {
    "querySequence": "MIFVLGGTSDSLLISDWLTETKRPFILSVATDYGETLAKQHAEKVFCGRLAKEAMLAKWQLEQIKLVIDATHPFATIVSETAMEACKEAGIPYIRFERTSEQTDNTYLVDDINEACKVAAKLGQRIFLTTGSKNLPEFVAGLKQQHIIARILPVSDVIRSAEELGLVADQIIGMKGPFTKEANRTQLEMTQADVLITKESGKQGGFQEKLTAAAELNIPVIVIRRKKLNYPIEINHLTELPEILTQLEV",
    "result": "not soluble"
  },
  {
    "querySequence": "MSLRFNVLKYIRTTKANIQTIAMPLTTKPLSLKINAALFDVDGTIIISQPAIAAFWRDFGKDKPYFDAEHVIHISHGWRTYDAIAKFAPDFADEEYVNKLEGEIPEKYGEHSIEVPGAVKLCNALNALPKEKWAVATSGTRDMAKKWFDILKIKRPEYFITANDVKQGKPHPEPYLKGRNGLGFPINEQDPSKSKVVVFEDAPAGIAAGKAAGCKIVGIATTFDLDFLKEKGCDIIVKNHESIRVGEYNAETDEVELIFDDYLYAKDDLLKWEGHHHHHH",
    "result": "not soluble"
  },
  {
    "querySequence": "MQSNTPQPNPAPFLKAGETVVLFDGVCKLCNGWAKFIIRHDRRQRIRLATVQSPEGQALLEWAGLPLDRFDTMAAVTGDRLYVRSEAFFVALSDFPAPWRWLRVLRFFPAVIRDWLYDRIALNRYRLFGRYDSCLLPTPDHERRFLKASPLEHHHHHH",
    "result": "soluble"
  }
]

----------
- assayProtocol: soluble on expression in E. coli; label from the status in PepcDB or PDB records

[
  {
    "querySequence": "MSLSEYRRKRSFDKTREPEPGKTLPPGQRAIFVVQLHHASRRHYDFRLQVGDALKSWAVPKGPSYDPKVKRMAVEVEDHPVDYASFEGEIPRGEYGGGHVAQFDHGVWATAGDPEAQLAKGHLRFELFGNKLKGGWHLVRSGKPARQPQWLLFKEDDAYAGLEHHHHHH",
    "soluble on expression in E. coli": "soluble"
  },
  {
    "querySequence": "MGSDKIHHHHHHMTKIKHIFSDLDGTLLDDQGKISKKTQEVIENSNLPFSLVSARAPQAMESLINQLNLKSSQVAFNGGLIFAKNEVIKANPMVHASAQELIKTIKKDYPEINLSLYSLSDWYVEKIDKDIEQEMQFTPQVPKLVDLETLITERPRLEIFKILLITPNESKLEEIKKHLEKLNFPDIIIQKTWETYLEITHLEAQKAKAVQFIAQREQLEQSELAAFGDNENDLSMLKAVGLPIVMANASDDLKKIGKVITKSNTEDGVAYGIQKYITDSLF",
    "soluble on expression in E. coli": "not soluble"
  },
  {
    "querySequence": "MLYPSKPNNEALRIQTLRELNVLDTSPEERFDRLTRLAKRLFNVPIALVSLVDADRQWFKSCVGLDVSETSRDISFCGHAILGDQILTVPDAGLDERFHDNPLVVGAPGIRFYAGCPLTVTNGSKLGTLCLIDIKPRDLDDEDRALLRDLARMAEQELAAVQMASMDELTLLSNRRGFEALARHALGVCKRLEKPATLLFFDLNDFKQINDTYGHAEGDGALKTFADVLRIAFRESDVIGRLGGDEFVALLTAADHVETSAIMARLREILDERNATLKRGYDIRFSVGQIEYDAERHPDIEALLADADKAMYLHKQASKRAR",
    "soluble on expression in E. coli": "not soluble"
  },
  {
    "querySequence": "MIDNVADGKIEADSKQAVNGGQLRDYTEQQMKIVLDDAKKYTDEQVKDRVSNGVNEAKSYTDMKFETLSYVVEDVRKAARQAVAMGLAVSNLRYYDIPGSLSLSFGTGIWRNQSAFAIGVGYTSEDGNIRSNLSITSADSHWDIGAGLRIKLN",
    "soluble on expression in E. coli": "not soluble"
  },
  {
    "querySequence": "MHQLWTYDPAAGTVEVGAGTTNEGLVDGPGEEAWFAQPSGLAATADRLWLADSETSALRWVDLDGAVHTAVGTGLFDFGHRDGDAEQALLQHPLGVTALPDGSVAVSDTYNHALRRYDPATGEVTTLATDLREPSDAVLVGDDIVVVESARHRLTRLRLPEEAVRVASVAHRTQRAATEVAPGRLQLDVIFQAPAGQKLDTRYGPSTRLLVSSTPPELLLNGEGADPDLSRTLELNPAIPEGVLHVSAMAASCDDDPANEYPACHVHQQDWGVPVRLTEGGADRLPLVLAGMDALEHHHHHH",
    "soluble on expression in E. coli": "not soluble"
  },
  {
    "querySequence": "MSLYPKAYIDYLVEFHATRDYFECHEILEEYWKEDPPKKRKRYWVGFIQLAVALYHHRRQNTAGAKRLMANSIRILQAEHRAVEDLGLDHGRLLELMQSVYEQIETVSAYKSIILPIKDEKLEEACRIECRKKKYTWGQPSALSNIFLIDKHRLRDRTDVIREREKEIERRKKSRDEGHHHHHH",
    "soluble on expression in E. coli": "soluble"
  },
  {
    "querySequence": "MGHHHHHHSHFLSSSTYPEIHGFLHAKEQGKKSWKKIYFFLRRSGLYFSTKGTSKEPRHLQFFSEFGNSDIYVSLAGKKKHGAPTNYGFCFKPNKAGGPRDLKMLCAEEEQSRTCWVTAIRLLKYGMQLYQNYMHPYQGRSGCSSQSI",
    "soluble on expression in E. coli": "not soluble"
  },
  {
    "querySequence": "MTSAAEITAAVRQLYNTYPFPPEPLLDEPPPGYNWRWSWPAAYSFCTGRYPSQLDVAILDAGCGTGVGTEYLAHLNPQAKITALDLSEAALAIACERCRRSGATNVQFHHLSLEEVAQLGQTFQMINCVGVLHHLPEPQRGIQALADVLAPGGIVHIFVYGEYGRWEIKLMQQAIALLQGSDRHNYREGVAIGRQLFAALPENNRLKKREQERWSLENQRDECFADMYVHPQEIDYTIASLFELIRASGLEFIGFSNPQVWQLERLLGSQPELLQRAQQLDPIQQYQLIECLDPEAMTHFEFFLAKPPLPRHDWAADRELLAAIPWRHPCIDGWPGACVFNCHYEVIHLNQAEQEFLNAASGKATVAELLAQQPDFNLAEVRSLLARHLLLLGVKE",
    "soluble on expression in E. coli": "not soluble"
  },
  {
    "querySequence": "MGSDKIHHHHHHMETFGGQVGRQEVPESSIDRYRGKLPNQLLTYWAEHGWCGYGDGIFWTVNPQEYDAVVASWLEGTKFETFDAYHLIARSAFGDLYLWGEEIGASLKITSILSRYTTHKSLCLGSQMDKGLQSFILSRKVGSNDYGDLFRPARKKLGTLHHDEMYGFVPALMLGGADTLDHLEKVKAVEHLVLLSQLSDLESYDFQDL",
    "soluble on expression in E. coli": "not soluble"
  },
  {
    "querySequence": "MSLQVEKISIIGLGLIGGSLAKALKEKLGIESITAVDINEKSLSQALKEGFIKEGFTELNESVYNSDIIFICTPVKDAVEYITRLHGKVKAGCILTDTASTKGEIIDYVNSLDNPPCFIGGHPMAGTEKAGFSSSFSHLFENAYYIMSPSKNCPEESLEYLAEIIRGIGAIPIKLDSKEHDIITATISHVPHVIASALVNLVKFSDSPDGKMQTLAAGGFKDITRIASSNPKMWENIILSNKEIVKSTLNKFTETINTFIEYIDNENSNGIYNFFDSAKKFRDSIPNNRKGLIEPQNELIVDVVDKPGIIGEIATILGNNGINIKNINVSNSREFEQGCLRITLPDSGSVAEAYELLAKKGYKVFKIEGHHHHHH",
    "soluble on expression in E. coli": "soluble"
  },
  {
    "querySequence": "MHGTCLSGLYPEPFTHNSHDYPHFNIYISFGGPKYCITALNTYVIPLLHHILTTQFIHTYFNIPTKSPPKSPKHKNYLSFNFTK",
    "soluble on expression in E. coli": "soluble"
  },
  {
    "querySequence": "MAFNDCFSLNYPGNPCPGDLIEVFRPGYQHWALYLGDGYVINIAPVDGIPASFTSAKSVFSSKALVKMQLLKDVVGNDTYRINNKYDETYPPLPVEEIIKRSEFVIGQEVAYNLLVNNCEHFVTLLRYGEGVSEQANRAISTVEFVTAAVGVFSFLGLFPKGQRAKYYLEHHHHHH",
    "soluble on expression in E. coli": "soluble"
  }
]
